tested on: SK-MEL-5 melanoma; assay: NCI tumour cell line growth inhibition, 48 h
Attribute: log10(TGI)
The common logarithm of TGI in µM is what is listed.

Look over these answered cases.
compound	log10(TGI)
Cc1nnc2sc(Cl)nn12	1.40
O=C1/C=C/[C@@H](O)[C@@H]2C[C@@H](O)C[C@H]2/C=C/CCC[C@H](CCc2ccc(C(F)(F)F)cc2)O1	-1.19
CS/C(C#N)=C(\C#N)SC	1.69

Would you kindly look at the next entry?
For the compound `O=c1c(-c2ccccc2)c2oc(c1-c1ccccc1)CS(=O)(=O)CCC2` , give its measured log10(TGI) value.
1.93

====

Reported TGI values for the following compounds.
test system: SK-MEL-28 melanoma; assay: NCI tumour cell line growth inhibition, 48 h

compound	value_reported
O=C(CCCCCCCn1cc(-c2cccnc2)nn1)Nc1ccccc1-c1ccccc1	> 95 µM
Cc1n[n+](CC(=O)c2ccccc2)c2sc(N)nn12	> 100 µM
C=C[C@]1(O)CCC[C@]2(C)C(=O)CCC12C (stereo not given in full)	> 100 µM
Cc1cc(S(=O)(=O)NC(=C(C#N)C#N)[n+]2ccc(N(C)C)cc2)c([S-])cc1Cl	> 100 µM

Here is another compound to look at.
Give TGI for the following compound: `Nc1ccc(Oc2ccc(C3(c4ccc(Oc5ccc(N)cc5)cc4)C4CC5C6CC7CC5C3C(C7)C6C4)cc2)cc1`
> 100 µM

====

system: NCI-H460 lung; assay: NCI tumour cell line growth inhibition, 48 h
property_name: TGI

Give TGI for `Sc1ccc2ccccc2c1CNCc1ccccc1`
> 100 µM

Identify the reported TGI for the following entry. CNC1C(O)C(NC)C2OC3(O)C(=O)CC(C)OC3OC2C1O (centres undefined)
> 100 µM

Give TGI for the following molecule: `Cc1nc2ccccn2c1NC(=O)NNC(=S)Nc1ccc(Br)cc1`
> 100 µM

====

tested on: TK-10 renal; assay: NCI tumour cell line growth inhibition, 48 h
property_name: GI50

Consider the following illustrative entries.
compound	GI50
O=C1/C=C/[C@@H](O)[C@@H]2C[C@@H](O)C[C@H]2/C=C/CCC[C@H](CCc2ccc(C(F)(F)F)cc2)O1	0.449 µM
CC(C)CC1C(=O)N2CCC[C@H]2C2(O)O[C@](NC(=O)C3C=C4c5cccc6[nH]c(Br)c(c56)C[C@H]4N(C)C3)(C(C)C)C(=O)N12 (stereo not given in full)	5.06 µM
O=C(CSc1nc2ccccc2nc1-c1ccccc1)Nc1ccc(Cl)cc1	35.9 µM
C[C@H](N)C(=O)N[C@@H]1[C@H]2C(=C(O)C[C@@H](O)[C@@H]2O)C(=O)O[C@]1(C)C(Cl)Cl	0.685 µM

Now let's try a different one.
Dear colleague, please send me the reported GI50 for `N=C(N)/N=C(\N)c1c(-c2cc(O)ccc2O)nc2sccn12` when you can.
17.9 µM

====

test system: TK-10 renal; test: NCI tumour cell line growth inhibition, 48 h; in the data active = GI50 below about 0.43 µM; inactive = the rest
Respond using exactly one of the listed classes: active, inactive

Examples from the recorded data:
compound	target_desc	group
O=Nc1ccc(O)c2ccccc12	TK-10 renal	inactive
Nc1ccccc1SC(CC(=O)c1ccccc1)c1ccc([N+](=O)[O-])cc1 (stereo not given)	TK-10 renal	inactive
N.N.N.N.O=NN1CCCCCC1(P(=O)([O-])[O-])P(=O)([O-])[O-].[Pt+4].[Pt+4]	TK-10 renal	inactive
O=Cc1ccc(-c2ccc(-c3nc4ccccc4[nH]3)cc2)s1	TK-10 renal	inactive

Now turn to the next compound.
Assay outcome for Cc1ccc2c(c1)C(C)Cc1c(ncnc1-n1cnc3cc(C)ccc31)N2C (stereo not given) : what was it?
active

====

test system: SF-539 CNS; test: NCI tumour cell line growth inhibition, 48 h
property_name: TGI (µM)
I only need the number, in µM, no unit after it.

query_smiles	property_name	units_text	value_reported
CC1=C(C(=O)Nc2ccccc2C)C(c2ccc(C3C(C(=O)Nc4ccccc4C)=C(C)NC(C)=C3C(=O)Nc3ccccc3C)cc2)C(C(=O)Nc2ccccc2C)=C(C)N1	TGI	µM	8.57
O=c1c(-c2ccccc2)c2oc(c1-c1ccccc1)CS(=O)(=O)CCC2	TGI	µM	42.4

Now for the compound whose TGI we want.
Find the measured TGI of `CCN(CC)CC.CCOc1ccc(NC(=O)N=C=[N-])cc1.[CH-]1CCCCC1.[CH-]1CCCCC1.[CH-]1CCCCC1.[Cl-].[Sn+4]` and report it.
0.052

====

tested on: TK-10 renal; assay: NCI tumour cell line growth inhibition, 48 h
Quick list: TGI per entry.

Reference set (2 entries):
compound	property_name	value_reported
C=CCOc1ccc(/C(N=Nc2ccc(C)cc2)=N/NC(=O)c2ccccc2)cc1OC	TGI	> 100 µM
C=C1C(=O)OC2/C=C(\C)C3OC3/C=C(/C(=O)OC)C(O)C(OC(=O)C3(C)OC3C)C12 (stereo not given)	TGI	9.14 µM

Report TGI, nothing else, for this compound: CC(C)C1C(=O)NC(CO)Cc2c[nH]c3c(C(c4c[nH]c5ccccc45)C(O)CO)ccc(c23)N1C (stereo not given)
> 100 µM

Report measured TGI; entry is `C[N+](C)(C)CC(=O)N/N=C(\CCC(=O)NCCc1ccccc1)CC(=O)c1ccccc1`
> 100 µM

Let me know recorded TGI for `Cc1c(-c2ccccc2)[nH]c2ccc(Cl)cc2c1=O` , thanks.
> 100 µM

====

tested on: A549 NSCLC; assay: NCI tumour cell line growth inhibition, 48 h
Items are presented alongside their recorded TGI.

These recorded examples may help you get a feel for the data.
compound	target_desc	TGI
CC(C)(C)OC(=O)[C@@H]1CCC(=S)N1Cc1ccccc1	A549 NSCLC	> 100 µM
COc1ccc(-c2nsc3c2NC(=O)CC3c2ccc(F)cc2)cc1 (centres undefined)	A549 NSCLC	> 100 µM
CCOC(=O)N1CC2(C)C=CC1C(C(=O)OC)C2 (centres undefined)	A549 NSCLC	> 100 µM
O=Cc1ccc(-c2ccc(-c3nc4ccccc4[nH]3)cc2)s1	A549 NSCLC	> 100 µM
CC1=CC=C2c3ccccc3C=CN2C(=O)C1	A549 NSCLC	> 100 µM
Nc1ccc(Oc2ccc(C3(c4ccc(Oc5ccc(N)cc5)cc4)C4CC5C6CC7CC5C3C(C7)C6C4)cc2)cc1	A549 NSCLC	> 100 µM

State, in one line, measured TGI of `CCC(=O)C1(c2ccccc2)CCN(C)CC1`
> 100 µM

Respond only with TGI recorded for COc1ccc(CC2c3cc(OC)c(OC)c(OC)c3CC[N+]2(C)C)cc1Oc1ccc(CC2c3cc4c(c(OC)c3CC[N+]2(C)C)OCO4)cc1 (centres undefined)
> 100 µM

Output measured TGI for this item: `Cc1ccc2c3c(cnc2n1)C(=O)OCCN3C`
> 100 µM

Identify measured TGI associated with `C=CCCOC(=O)CO[N+](=O)[O-]`
> 100 µM

For the compound `Cc1nnc2sc(Cl)nn12` , give its reported TGI.
72.8 µM

====

Recorded TGI for the following molecules
tested on: HCT-15 colon; experiment: NCI tumour cell line growth inhibition, 48 h

The cases that follow already have their TGI on record.
molecule	value_reported
C[N+](C)(C)CC(=O)N/N=C(\CCC(=O)NCCc1ccccc1)CC(=O)c1ccccc1	> 100 µM
c1ccc(N=c2snc3scc(-c4ccccc4)n23)cc1	> 100 µM
CCn1ncc2c1nc(-c1ccccc1)c[n+]2[O-]	> 100 µM
Cc1c(-c2ccccc2)[nH]c2ccc(Cl)cc2c1=O	> 100 µM

Provide TGI value for the following molecule: `Cc1ccc2nc(N/N=C/c3ccc(C)s3)cc(C)c2c1`
15.3 µM

Kindly indicate its recorded TGI. Item: `C=CC(=O)N1C/C(=C\c2ccccc2)C(=O)/C(=C/c2ccccc2)C1`
4 µM

Item `C=C(C)CNC(=S)N(N)c1ccc(OC)cc1` : provide TGI
56.8 µM

Give the value of TGI reported for the following: CCN1C(=O)N(CC)C2C1NN=c1s/c(=C\c3ccccc3F)c(=O)n12 (stereo unspecified)
> 100 µM

Find the measured TGI of `O=C(NCCO)c1cc2c(cn1)[nH]c1ccccc12` and report it.
> 100 µM

Output measured TGI for this item: `Cn1c2c(c3ccccc31)CCN1OCC=C[C@@H](C(=O)O)[C@@H]21`
> 100 µM

Give recorded TGI. NC(=O)NC(=O)CCC(NS(=O)(=O)c1ccccc1)C(=O)NC(N)=O (stereo unspecified)
> 100 µM

====

tested on: SNB-19 CNS; assay: NCI tumour cell line growth inhibition, 48 h
property_name: TGI

In the examples that follow, each entry is paired with its recorded TGI.
compound	target_desc	TGI
O=c1c(-c2c(-c3ccccc3)oc3ccc(Cl)cc3c2=O)c(-c2ccccc2)oc2ccc(Cl)cc12	SNB-19 CNS	> 100 µM
CSc1nc(NC2OCC(OC(C)=O)C(OC(C)=O)C2OC(C)=O)c(N=C(C)C(C)=O)c(=O)n1C (configuration not stated)	SNB-19 CNS	> 100 µM
O=c1oc2ccccc2n1P(=O)(n1c(=O)oc2ccccc21)n1c(=O)oc2ccccc21	SNB-19 CNS	> 100 µM
O=C(CCCCCCCn1cc(-c2cccnc2)nn1)Nc1ccccc1-c1ccccc1	SNB-19 CNS	> 100 µM
O=C1/C(=C\c2ccc(F)cc2)CN(C(=O)c2ccc([N+](=O)[O-])cc2)C/C1=C\c1ccc(F)cc1	SNB-19 CNS	49.1 µM
Cc1ccccc1N=CN(C)C	SNB-19 CNS	> 100 µM

# return recorded TGI for input `Sc1ccc2ccccc2c1CNCc1ccccc1`
> 100 µM
